These entries and their values trace back to the supplement of paper PMC9112550.

test system: Escherichia coli TOP10; test: shrunken log2 fold change of peptide-encoding DNA abundance (4.5 h post-induction vs induction); higher = less antimicrobial activity (less host growth inhibition); details: time post-induction: 4.5 h; library: site-saturation at positions 5, 18, 19, 20;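 further: peptides expressed intracellularly from a pBAD plasmid library in pooled LB shake-flask culture, induced with 0.3% L-arabinose, DNA abundance read by NGS, three biological replicates, DESeq2 with apeglm shrinkage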
Readout name: shrunken log2 fold change
Field format: numeric only.

Here are 10 sequences together with their reported answers.
- Chain sequence: "RRIRERPPRLPRPRPRPHVSPRP"
  Observed value: -0.0346
- Chain sequence: "RRIRGRPPRLPRPRPRPPAAPRP"
  Observed value: 1.63
- Chain sequence: "RRIRNRPPRLPRPRPRPHTGPRP"
  Observed value: -0.313
- Chain sequence: "RRIRTRPPRLPRPRPRPAGNPRP"
  Observed value: 0.00723
- Chain sequence: "RRIRDRPPRLPRPRPRPDYIPRP"
  Observed value: 0.0998
- Chain sequence: "RRIRIRPPRLPRPRPRPWPKPRP"
  Observed value: -0.122
- Chain sequence: "RRIRCRPPRLPRPRPRPAEMPRP"
  Observed value: -0.0594
- Chain sequence: "RRIRGRPPRLPRPRPRPKDFPRP"
  Observed value: -0.0214
- Chain sequence: "RRIRRRPPRLPRPRPRPRTIPRP"
  Observed value: 0.134
- Chain sequence: "RRIRVRPPRLPRPRPRPGWLPRP"
  Observed value: 0.543

Turning now to a further sequence:
In: Return reported shrunken log2 fold change. Input sequence: "RRIRMRPPRLPRPRPRPFELPRP"
Out: 0.0846
